target: S. mansoni TGR (Schistosoma mansoni, UniProt Q962Y6); assay: biochemical; settings: read-out: Activity of Enzyme (% of Uninhibited Enzyme)
Sequence (Q962Y6 1-598): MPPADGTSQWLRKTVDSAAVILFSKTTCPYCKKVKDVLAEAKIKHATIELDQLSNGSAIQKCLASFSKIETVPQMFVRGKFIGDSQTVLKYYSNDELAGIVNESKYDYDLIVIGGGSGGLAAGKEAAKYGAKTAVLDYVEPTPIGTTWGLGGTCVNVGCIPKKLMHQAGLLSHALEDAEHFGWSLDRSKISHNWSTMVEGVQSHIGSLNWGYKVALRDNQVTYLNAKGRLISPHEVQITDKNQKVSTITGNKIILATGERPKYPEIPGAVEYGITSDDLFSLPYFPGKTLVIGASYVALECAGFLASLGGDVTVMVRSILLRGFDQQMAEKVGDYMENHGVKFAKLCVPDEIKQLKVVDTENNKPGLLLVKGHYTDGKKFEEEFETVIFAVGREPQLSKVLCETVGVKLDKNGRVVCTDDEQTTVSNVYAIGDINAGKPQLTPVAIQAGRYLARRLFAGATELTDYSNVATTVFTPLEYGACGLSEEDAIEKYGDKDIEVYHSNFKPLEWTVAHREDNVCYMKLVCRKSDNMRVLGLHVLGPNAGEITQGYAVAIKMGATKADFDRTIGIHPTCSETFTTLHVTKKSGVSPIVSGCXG
readout name: activity at 50 µM

- compound: "O=C(C1CCCCC1)N1CC(=O)N2CCc3ccccc3C2C1 (stereo not shown)"
  measured: "100%"
- compound: "CN(C)c1ccc2nc3ccc(=[N+](C)C)cc-3sc2c1"
  measured: "100%"
- compound: "CC1=CC(=O)c2c(O)cccc2C1=O"
  measured: "15%"
- compound: "CC1=CC(=O)c2ccccc2C1=O"
  measured: "18%"

---

target: UniProt:Q962Y6; assay type: biochemical; parameters: The entire TGR ORF plus the SECIS element was subcloned into pET-24a; made in house; host or cells: Escherichia coli BL21(DE3) with pSUABC; details: read-out: IC50 S. mansoni TGR, GSSG (GR activity)
Listed next: entries and their corresponding IC50.

- compound: "O.O.O.O=C([O-])[C@H]([O-])[C@@H]([O-])C(=O)[O-].O=C([O-])[C@H]([O-])[C@@H]([O-])C(=O)[O-].[K+].[K+].[Sb+3].[Sb+3] [PAT, potassium antimonyl tartrate]"
  experimental system: "UniProt:Q962Y6"
  IC50 [nM]: 37
- compound: "OC[C@H]1O[C@H]([S-])[C@H](O)[C@@H](O)[C@@H]1O.[Au+]"
  experimental system: "UniProt:Q962Y6"
  IC50 [nM]: 3000

Ref: paper PMC1892040
